assay: Toxicity liver stage against HepG2, at 10uM; type: cell-based; parameters: test concentration 10 uM, cell line HepG2-A16-CD81EGFP; conditions: human, HepG2-A16-CD81EGFP cells; read-out: INHIBITION
Recorded cytotoxicity at 10 µM by entry
Reply numerically in %, unit not repeated.

Record excerpt, results attached:
>  <compound>
Cc1noc(-c2ccnc(Oc3cccc(CN4CCCC4)c3F)c2)n1

>  <cytotoxicity at 10 µM [%]>
-7.07

$$$$
>  <compound>
CCn1ccc(NC(=O)CN2C(=O)CC(C)(C)c3ccccc32)n1

>  <cytotoxicity at 10 µM [%]>
-5.01

$$$$
>  <compound>
COC[C@]12COC[C@H]1CN(Cc1ccc3c(c1)OCO3)C2

>  <cytotoxicity at 10 µM [%]>
-108

$$$$
>  <compound>
CC(C)S(=O)(=O)CC(=O)N(Cc1ccsc1)c1ccccc1

>  <cytotoxicity at 10 µM [%]>
-5.24

$$$$
>  <compound>
Cc1c(C2SCC(=O)Nc3c2c(O)nn3C2CCCC2)cnn1C (configuration not stated)

>  <cytotoxicity at 10 µM [%]>
1.58

$$$$

Task: Given the compound O=c1[nH]c2csnc2c(=O)n1Cc1ccc(Br)cc1 , write its reported cytotoxicity at 10 µM.
Output: 5.41

Task: Given the compound CN(C)C1CCCN(C(=O)NCCC(C)(C)C)C1 (configuration not stated) , write its reported cytotoxicity at 10 µM.
Output: -0.317

Task: Given the compound CCn1ncc2c1C(COC)CN(S(=O)(=O)N(C)C)C2 (configuration not stated) , write its reported cytotoxicity at 10 µM.
Output: 12.5

Task: Given the compound CN1CCN(C(=O)c2cnsn2)c2cc(F)ccc21 , write its reported cytotoxicity at 10 µM.
Output: -9.03

Task: Given the compound Cc1nccn1-c1ccccc1CNC(=O)c1cn(CCN)nn1 , write its reported cytotoxicity at 10 µM.
Output: 1.58

Task: Given the compound Cn1cnc(S(=O)(=O)NCCCN2CCCC2=O)c1Cl , write its reported cytotoxicity at 10 µM.
Output: -12.1

Task: Given the compound O=C(NCc1ccco1)N1CCCCC1c1nc(C2CC2)no1 (configuration not stated) , write its reported cytotoxicity at 10 µM.
Output: -7.86

====

experiment: Toxicity liver stage against HepG2, at 10uM; type: cell-based; design: test concentration 10 uM, cell line HepG2-A16-CD81EGFP; details: human, HepG2-A16-CD81EGFP cells; read-out: INHIBITION
observationType: cytotoxicity at 10 µM (%)
Reply numerically in %, unit not repeated.

Task: Given the compound COc1ccccc1C1(CNc2ccc(C(=O)N(C)C)cn2)CC1 , write its reported cytotoxicity at 10 µM.
Output: -10.5

Task: Given the compound CCN1C[C@H]2CCN(C(C)=O)CC[C@H]2S1(=O)=O , write its reported cytotoxicity at 10 µM.
Output: 0.0452

Task: Given the compound CCOn1c(SC(C)C)nc2ccccc2c1=O , write its reported cytotoxicity at 10 µM.
Output: -5.36

Task: Given the compound c1ccc(CN2CCCC[C@H]3CN(c4ncccn4)C[C@H]32)cc1 , write its reported cytotoxicity at 10 µM.
Output: -3.81

Task: Given the compound O=c1[nH]c2cn(-c3cccc(F)c3)c(=O)n2n1Cc1ccccc1Cl , write its reported cytotoxicity at 10 µM.
Output: 4.9

Task: Given the compound CC(=O)N1CCN(C(=O)c2cc(-n3cnnn3)ccc2Cl)CC1 , write its reported cytotoxicity at 10 µM.
Output: 8.32

Task: Given the compound O=C(O)c1cc(S(=O)(=O)Nc2cccc3c2OCCO3)ccc1F , write its reported cytotoxicity at 10 µM.
Output: 12.3

Task: Given the compound O=C(NCc1cn2c(n1)CN(Cc1cccc(F)c1)CC2)C1CCC1 , write its reported cytotoxicity at 10 µM.
Output: 8.79
